Form field: IC50 (one value per entry).
molecular target: Glucocorticoid receptor (Rattus norvegicus, UniProt P06536); test: Agonist activity at glucocorticoid receptor in rat PBMC assessed as inhibition of LPS-stimulated TNF-alpha release
Sequence (P06536 whole entry): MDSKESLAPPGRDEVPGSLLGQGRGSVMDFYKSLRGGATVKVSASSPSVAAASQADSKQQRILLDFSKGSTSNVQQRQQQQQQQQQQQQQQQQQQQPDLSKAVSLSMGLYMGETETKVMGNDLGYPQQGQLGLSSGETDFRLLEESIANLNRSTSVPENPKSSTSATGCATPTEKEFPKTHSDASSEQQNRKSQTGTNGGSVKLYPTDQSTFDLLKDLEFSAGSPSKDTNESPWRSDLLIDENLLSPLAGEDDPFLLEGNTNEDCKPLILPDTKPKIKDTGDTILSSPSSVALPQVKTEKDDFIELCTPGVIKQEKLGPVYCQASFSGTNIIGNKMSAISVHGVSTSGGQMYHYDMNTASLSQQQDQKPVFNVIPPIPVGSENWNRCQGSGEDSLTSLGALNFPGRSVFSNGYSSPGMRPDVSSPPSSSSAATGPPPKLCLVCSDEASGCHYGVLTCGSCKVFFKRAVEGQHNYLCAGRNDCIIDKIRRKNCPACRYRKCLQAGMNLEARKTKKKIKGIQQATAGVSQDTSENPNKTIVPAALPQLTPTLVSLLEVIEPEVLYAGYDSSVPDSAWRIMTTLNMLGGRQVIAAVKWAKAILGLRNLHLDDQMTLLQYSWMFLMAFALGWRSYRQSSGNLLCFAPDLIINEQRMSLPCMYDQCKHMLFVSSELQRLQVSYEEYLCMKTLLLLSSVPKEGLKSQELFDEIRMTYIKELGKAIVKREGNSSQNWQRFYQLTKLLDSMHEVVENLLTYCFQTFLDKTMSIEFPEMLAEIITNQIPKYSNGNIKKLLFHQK
Respond with the bare value in nM.

>>> quantitativereadout("Cc1nn(C2CCCC2)c(C)c1S(=O)(=O)N[C@@H](C)CNc1cccc2c1cnn2-c1ccc(F)nc1")
4.5

Here is another molecule to look at.
(Q) Reported IC50 for Cc1cc(C)c(S(=O)(=O)N[C@@H](C)CNc2cccc3c2cnn3-c2ccc(F)cc2)c(C)c1 : what is it?
(A) 0.9

* * *

assay: Thermodynamic solubility of the amorphous compound in 0.1 M phosphate buffer at pH 7.4 at 25 degC after 24 hrs; assay type: physicochemical; settings: read-out: Therm_solubility
measurementLabel: solubility thermodynamic at 24 h (µM)
Respond with the bare value in µM.

(Q) Reported solubility thermodynamic at 24 h for Cc1nn(C2CCCC2)c(C)c1S(=O)(=O)N[C@@H](C)CNc1cccc2c1cnn2-c1ccc(F)nc1 : what is it?
(A) 22
